# Procedure details: Acute toxicity (LD50) in mice
# Details: mouse, in vivo, oral administration
# Description: In view of the above-described problems, this invention relates to a series of analgesic 5,9-methanocycloocta[b]pyridin-2(H)-one derivatives. The compounds of Formula I release huperzine A after p.o. administration. The amount of huperzine A released in artificial gastric fluid at various time intervals after administration of (5R,9R,11E)-5-(3-phenylprop-2-en-1-ylideneamino)-11-ethylidene-5,6,9,10-tetrahydro-7-methyl-5,9-methanocycloocta[b]pyridin-2(1H)-one is listed in Table 2. […]
Hi there, I'd appreciate the recorded LD50 for every entry that follows.
Give bare numbers, in mg/kg.

# Compound, Reading unit, Measurement
data = [
    ("C/C=C1\\[C@H]2C=C(C)C[C@]1(/N=C/C=C/c1ccccc1)c1ccc(=O)[nH]c1C2 [Example 2]", "mg/kg", 26.5),
    ("C/C=C1\\C2C=C(C)CC1(/N=C/C=C/c1cccc3ccccc13)c1ccc(=O)[nH]c1C2 (stereo not shown) [Example 23]", "mg/kg", 43.2),
    ("C/C=C1\\[C@H]2C=C(C)C[C@]1(/N=C/C=C/c1ccc(Cl)cc1)c1ccc(=O)[nH]c1C2 [Example 14]", "mg/kg", 35.6),
]

From here, focus on the item given below.
Item: C/C=C1\[C@H]2C=C(C)C[C@]1(N)c1ccc(=O)[nH]c1C2 [Example 1, reference compound] | LD50: 3.8

###

# Tested on: mice
# Procedure details: Analgesic effect of intragastric administration on mice measured with hot-plate test
# Type: in vivo, ICR mice
# Details: Table 3 screening; 0.6 mg/kg intragastric; 1 hour; x ± s, n = 10
Reported property: pain threshold after administration (s)
Answers are plain numbers, in s.

Solved cases below.
# Smiles, Reading unit, pain threshold after administration
measured = [
    ("C/C=C1\\[C@H]2C=C(C)C[C@]1(/N=C/C=C/c1ccccc1C)c1ccc(=O)[nH]c1C2", "s", 27.6),
    ("C/C=C1\\C2C=C(C)CC1(/N=C\\C=C\\c1ccc(/C=C/C=N/C34CC(C)=CC(Cc5[nH]c(=O)ccc53)/C4=C\\C)cc1)c1ccc(=O)[nH]c1C2", "s", 23.4),
    ("C/C=C1\\[C@H]2C=C(C)C[C@]1(/N=C/C=C/C=C/C=C/c1ccccc1)c1ccc(=O)[nH]c1C2", "s", 25.8),
    ("C/C=C1\\[C@H]2C=C(C)C[C@]1(/N=C/C=C/c1ccccc1OC)c1ccc(=O)[nH]c1C2", "s", 26.0),
]

Would you be so kind as to report pain threshold after administration for each listed record?
1. C/C=C1\[C@H]2C=C(C)C[C@]1(/N=C/C=C/c1cccc(C)c1)c1ccc(=O)[nH]c1C2
2. C/C=C1\[C@H]2C=C(C)C[C@]1(/N=C/C=C/c1cccc(OC)c1)c1ccc(=O)[nH]c1C2

1. 27.0
2. 18.6

Item: C/C=C1\[C@H]2C=C(C)C[C@]1(/N=C/C=C/c1ccccc1Br)c1ccc(=O)[nH]c1C2 | pain threshold after administration: 19.6

###

# System: mice
# Procedure details: Analgesic effect of intragastric administration on mice measured with hot-plate test
# Assay type: in vivo, ICR mice
# Details: Table 3 screening; 0.6 mg/kg intragastric; 1 hour; x ± s, n = 10
Reported property: pain threshold after administration
Number first, unit second: that is the form wanted.

Solved cases below.
# Compound, pain threshold after administration
measured = [
    ("C/C=C1\\[C@H]2C=C(C)C[C@]1(/N=C/C=C/c1ccc(OC)cc1)c1ccc(=O)[nH]c1C2", "24.6 ± 5.46 s"),
    ("C/C=C1\\[C@H]2C=C(C)C[C@]1(/N=C/C=C(\\C)c1ccccc1)c1ccc(=O)[nH]c1C2", "24.6 ± 5.61 s"),
    ("C/C=C1\\C2C=C(C)CC1(/N=C/C=C/c1c3ccccc3cc3ccccc13)c1ccc(=O)[nH]c1C2 (centres unmarked)", "20.8 ± 3.60 s"),
    ("C/C=C1\\[C@H]2C=C(C)C[C@]1(/N=C/C=C/c1cccc(Br)c1)c1ccc(=O)[nH]c1C2", "23.0 ± 4.98 s"),
]

From here, focus on the item given below.
Item: C/C=C1\[C@H]2C=C(C)C[C@]1(/N=C/C=C/c1cccc(Cl)c1)c1ccc(=O)[nH]c1C2 | pain threshold after administration: 28.8 ± 3.92 s
